Each item that follows carries a reported Km.
# assay.explanation: in vitro
# recorded.conditions: male, human, pH 7.4

Q: Entry Cc1c(C)c2ccc(O)cc2oc1=O [compound 4, 3,4-dimethyl-7-hydroxycoumarin] : reported Km = ?
A: 24 µM

From here, focus on the item given below.
Q: Endpoint output: Km of COc1ccc(-c2cc3ccc(O)cc3oc2=O)cc1 [compound 11, 3-(4-methoxyphenyl)-7-hydroxycoumarin] . Value?
A: 0.11 µM

###

Km for assorted molecules
# System: dog liver cytosol
# recorded.conditions: pH 7.4
Provide only the numeric value, understood in µM.

Q: Request the reported Km associated with O=c1oc2cc(O)ccc2cc1-n1cncn1
A: 3.9

Q: Can you share its Km? I mean this molecule: O=c1oc2cc(O)ccc2cc1-c1cccnc1 [compound 13, 3-(4-pyridin-3-yl)-7-hydroxycoumarin]
A: 3.3

Where these numbers come from: paper PMC7646200
